# TARGET OR SYSTEM: SpCas9 (Streptococcus pyogenes serotype M1, UniProt Q99ZW2)
# Sequence (Q99ZW2 whole entry): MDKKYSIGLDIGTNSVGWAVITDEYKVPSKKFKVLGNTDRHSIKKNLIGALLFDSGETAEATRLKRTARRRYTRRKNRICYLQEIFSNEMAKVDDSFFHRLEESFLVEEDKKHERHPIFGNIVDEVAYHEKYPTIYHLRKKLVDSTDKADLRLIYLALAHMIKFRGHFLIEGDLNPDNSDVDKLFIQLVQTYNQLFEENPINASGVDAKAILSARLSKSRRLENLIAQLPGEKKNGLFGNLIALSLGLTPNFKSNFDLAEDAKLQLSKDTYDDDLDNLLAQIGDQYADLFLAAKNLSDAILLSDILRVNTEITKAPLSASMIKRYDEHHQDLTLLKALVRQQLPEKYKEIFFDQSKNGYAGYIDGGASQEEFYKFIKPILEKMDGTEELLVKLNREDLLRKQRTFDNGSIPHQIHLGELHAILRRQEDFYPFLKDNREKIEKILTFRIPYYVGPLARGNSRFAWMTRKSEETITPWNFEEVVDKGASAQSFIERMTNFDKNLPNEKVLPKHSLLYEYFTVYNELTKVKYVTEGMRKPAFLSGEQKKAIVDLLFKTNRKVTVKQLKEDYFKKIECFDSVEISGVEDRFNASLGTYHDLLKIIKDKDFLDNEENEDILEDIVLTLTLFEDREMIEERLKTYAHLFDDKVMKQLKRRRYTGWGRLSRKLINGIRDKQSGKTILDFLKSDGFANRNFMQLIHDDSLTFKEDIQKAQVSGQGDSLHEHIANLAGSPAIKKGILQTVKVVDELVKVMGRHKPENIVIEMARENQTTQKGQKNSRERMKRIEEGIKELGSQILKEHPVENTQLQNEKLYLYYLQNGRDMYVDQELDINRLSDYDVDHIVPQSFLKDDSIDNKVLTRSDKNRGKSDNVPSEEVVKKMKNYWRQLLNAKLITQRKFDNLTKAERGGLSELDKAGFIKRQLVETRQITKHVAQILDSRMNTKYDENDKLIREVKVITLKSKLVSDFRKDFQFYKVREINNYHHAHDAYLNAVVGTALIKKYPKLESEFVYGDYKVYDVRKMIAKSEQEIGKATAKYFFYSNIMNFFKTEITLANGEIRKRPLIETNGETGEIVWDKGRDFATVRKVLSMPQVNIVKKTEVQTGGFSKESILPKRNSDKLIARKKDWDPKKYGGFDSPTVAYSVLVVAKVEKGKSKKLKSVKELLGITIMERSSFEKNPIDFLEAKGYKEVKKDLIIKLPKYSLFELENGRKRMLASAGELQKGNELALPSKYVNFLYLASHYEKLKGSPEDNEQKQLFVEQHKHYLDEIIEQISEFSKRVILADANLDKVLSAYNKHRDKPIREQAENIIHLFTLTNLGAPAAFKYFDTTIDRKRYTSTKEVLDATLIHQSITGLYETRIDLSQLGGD
# ASSAY EXPLANATION: Strand displacement assay (SDA) / cumulative activity assay (CAA), SpCas9 primary screen
# Assay type: biochemical
# TEST CONDITIONS: Primary Screen (150 min)
Doc: threshold 5 (exclusive). Items with avg z score primary beneath it return class 1; others return class 0.

Solved cases (3 shown):
>  <MOLECULE>
Cn1nc(-c2ccccc2F)c2cc(C(=O)Oc3ccc4cnccc4c3)sc21

>  <DISCRETE LABEL>
class 0

$$$$
>  <MOLECULE>
O=C(Nc1ccc(F)c(Cl)c1)c1ccc(Oc2ccnc(-c3ccc(F)cc3)n2)cc1

>  <DISCRETE LABEL>
class 0

$$$$
>  <MOLECULE>
O=C(Nc1nc(-c2ccccc2)c(C(=O)c2ccccc2)s1)c1ccc2c(c1)OCCO2

>  <DISCRETE LABEL>
class 1

$$$$

Task item: # TODO verify avg z score primary < 5 strictly for this molecule: `COc1ccc(CNC(=O)c2ccc(Oc3ccnc(-c4cccc(F)c4)n3)cc2)c(OC)c1`
Reply: class 0

Task item: Next: `Cc1nc2ccccc2c(C)c1CC(=O)N1CCN(c2ccc(O)cc2)CC1`
Reply: class 1

Task item: Next: `O=C(O)C(S)=C/C=C\c1ccccc1`
Reply: class 1

Task item: Next: `O=C(CSc1nnc2ccccn12)Nc1cc(C(=O)O)cc(C(=O)O)c1`
Reply: class 0

Task item: Next: `Cc1ccc(C(=O)n2ncn(C)c2=S)cc1`
Reply: class 0

====

# TARGET OR SYSTEM: SaCas9 (Staphylococcus aureus)
# ASSAY EXPLANATION: eGFP secondary assay, SaCas9
# Format: cell-based
# TEST CONDITIONS: replicate 1, % eGFP disruption
Quick reference for Normalized eGFP Disruption Rep 1 among some compounds
Answer as a number with no unit attached.

Answered cases to consult:
>  <COMPOUND>
O=C1c2ccccc2C(=O)c2oc(-c3ccc(F)cc3)nc21

>  <Normalized eGFP Disruption Rep 1>
64.909

$$$$
>  <COMPOUND>
CCOc1ccc(NC(=O)c2cc(=O)c3cc(CC)ccc3o2)c2cccnc12

>  <Normalized eGFP Disruption Rep 1>
92.384

$$$$
>  <COMPOUND>
NC(=O)c1sc(=S)n(Cc2ccccc2)c1N

>  <Normalized eGFP Disruption Rep 1>
29.562

$$$$

Task item: Which value of Normalized eGFP Disruption Rep 1 has been reported for Cc1ccccc1CC(=O)N1CCCC(c2nc(O)c3nnn(Cc4ccc(F)cc4)c3n2)C1 (centres unmarked) in the records?
Reply: 64.041

Task item: Next: `C=CC1=C(C(=O)O)N2C(=O)[C@@H](NC(=O)C(=NOCC(=O)O)c3csc(N)n3)[C@H]2SC1.O`
Reply: 62.883

Task item: Next: `Fc1cccc(-c2nnc3sc(-c4c[nH]c5ccccc45)nn23)c1`
Reply: 57.757

Task item: Next: `Cc1nc(Nc2ccc(N3CCOCC3)cc2)cc(-c2ccccc2)n1`
Reply: 44.472

Task item: Next: CC1(C(=O)NC2CCCCC2)Cn2c(cc3ccccc32)C(=O)N1Cc1ccccc1 (centres unmarked)
Reply: 49.411

====

# TARGET OR SYSTEM: SaCas9 (Staphylococcus aureus, UniProt J7RUA5)
# Sequence (J7RUA5 whole entry): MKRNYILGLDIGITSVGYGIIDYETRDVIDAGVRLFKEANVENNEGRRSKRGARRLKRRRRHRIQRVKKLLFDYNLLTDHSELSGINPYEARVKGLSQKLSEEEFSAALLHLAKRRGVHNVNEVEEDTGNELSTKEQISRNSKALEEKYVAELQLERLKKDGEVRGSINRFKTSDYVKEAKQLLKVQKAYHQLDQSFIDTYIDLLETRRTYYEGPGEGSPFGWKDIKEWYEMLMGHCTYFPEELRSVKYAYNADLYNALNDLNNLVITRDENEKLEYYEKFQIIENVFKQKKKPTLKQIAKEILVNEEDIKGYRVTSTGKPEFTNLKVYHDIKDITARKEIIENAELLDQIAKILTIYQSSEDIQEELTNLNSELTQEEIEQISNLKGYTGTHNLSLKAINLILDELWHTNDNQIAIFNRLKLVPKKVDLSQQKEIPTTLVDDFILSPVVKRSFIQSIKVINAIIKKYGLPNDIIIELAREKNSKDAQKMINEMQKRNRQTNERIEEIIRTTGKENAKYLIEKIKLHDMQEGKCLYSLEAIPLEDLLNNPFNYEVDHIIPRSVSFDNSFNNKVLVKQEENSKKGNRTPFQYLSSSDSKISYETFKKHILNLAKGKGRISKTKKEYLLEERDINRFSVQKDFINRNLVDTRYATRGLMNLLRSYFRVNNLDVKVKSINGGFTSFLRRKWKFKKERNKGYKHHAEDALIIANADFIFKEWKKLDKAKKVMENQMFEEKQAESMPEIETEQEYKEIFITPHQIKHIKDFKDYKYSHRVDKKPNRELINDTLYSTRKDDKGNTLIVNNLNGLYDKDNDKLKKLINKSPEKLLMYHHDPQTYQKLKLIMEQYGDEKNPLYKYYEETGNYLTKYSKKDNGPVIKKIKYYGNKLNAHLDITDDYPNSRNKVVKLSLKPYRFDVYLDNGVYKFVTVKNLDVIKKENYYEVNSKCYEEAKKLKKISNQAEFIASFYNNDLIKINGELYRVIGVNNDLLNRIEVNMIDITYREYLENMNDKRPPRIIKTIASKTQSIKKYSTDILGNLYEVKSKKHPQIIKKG
# ASSAY EXPLANATION: Strand displacement assay, SaCas9 primary screen
# Type: biochemical
# TEST CONDITIONS: SaCas9 primary screen, weaker potential hits, replicate 2
Doc: threshold 0.2 (exclusive). Items with Normalized Zscore Rep 2 beneath it return Satisfied; others return Not satisfied.

Solved cases (6 shown):
>  <MOLECULE>
c1ccc(CCCNc2nn3nnnc3c3ccccc23)cc1 [Cpd C301-8945]

>  <DISCRETE LABEL>
Satisfied

$$$$
>  <MOLECULE>
O=C1CC(c2ccc(O)c(O)c2)c2c(nc(SCc3ccc(Cl)cc3)[nH]c2=O)N1 (centres unmarked) [Cpd D271-0011]

>  <DISCRETE LABEL>
Not satisfied

$$$$
>  <MOLECULE>
CS(=O)(=O)Nc1cnc(N2CCC(C(N)=O)(N3CCCCC3)CC2)c(C(=O)O)c1 [Compound F293-0183]

>  <DISCRETE LABEL>
Not satisfied

$$$$
>  <MOLECULE>
O=C(O)c1cc(NS(=O)(=O)c2cc(F)ccc2F)cnc1N1CCC(N2CCCCC2)CC1 [Compound F293-0616]

>  <DISCRETE LABEL>
Satisfied

$$$$
>  <MOLECULE>
O=C(c1ccccc1)c1cnc2ccc(F)cc2c1S(=O)(=O)c1ccc(F)cc1 [Cpd C770-0245]

>  <DISCRETE LABEL>
Satisfied

$$$$
>  <MOLECULE>
COc1ccc(OC)c(S(=O)(=O)Nc2cnc(N3CCCC3)c(C(=O)O)c2)c1 [Cpd F293-0436]

>  <DISCRETE LABEL>
Not satisfied

$$$$

Next up:
Task item: # TODO verify Normalized Zscore Rep 2 < 0.2 strictly for this molecule: Fc1ccc(OCc2nn3c(-c4ccccn4)nnc3s2)cc1 [Compound D727-0525]
Reply: Not satisfied

====

Quick reference for Normalized Zscore Rep 2 among some molecules
# TARGET OR SYSTEM: SaCas9 (Staphylococcus aureus)
# ASSAY EXPLANATION: Strand displacement assay, SaCas9 primary screen
# Assay type: biochemical
# TEST CONDITIONS: SaCas9 primary screen, weaker potential hits, replicate 2
# Description: An overview of the screening for SaCas9 inhibitors is depicted in FIG. 14. A total of 43,168 Compounds were screened from the ICCB Libraries. […] A hit is determined from the Zscore, with 3-5σ being a weak hit, >5σ being a strong hit. […] Generalization of CAA to other Cas nucleases. […] Given the similarities between SaCas9 and SpCas9 modes of DNA-substrate binding and protein folding,^26, 27 Applicants hypothesized that SaCas9-induced strand displacement could be similarly measured. […]
Answer as a number with no unit attached.

Answered cases to consult:
>  <MOLECULE>
CC1(C)CC(=O)C2=C(C1)Nc1onc(C(C)(C)C)c1C2c1ccc(O)c(O)c1 (centres unmarked)

>  <Normalized Zscore Rep 2>
0.3634

$$$$
>  <MOLECULE>
CCN(Cc1ccccc1)c1ncc(NS(=O)(=O)c2ccccc2)cc1C(=O)O

>  <Normalized Zscore Rep 2>
0.1884

$$$$
>  <MOLECULE>
Cc1ccc(C)c(SCC(=O)NC(C)C(c2ccccc2)N2CCOCC2)c1 (centres unmarked)

>  <Normalized Zscore Rep 2>
0.2417

$$$$

Task item: Which value of Normalized Zscore Rep 2 has been reported for `CCN(Cc1ccccc1)c1ccc(NS(=O)(=O)c2c(C)cc(C)cc2C)cc1C(=O)O` in the records?
Reply: 0.205

Task item: Next: Cc1cccc(Cn2c(SCC(O)CO)nc3c2c(=O)[nH]c(=O)n3C)c1 (centres unmarked)
Reply: 0.1125

Task item: Next: `Cc1cc(-c2nnc3sc(COc4ccccc4Cl)nn23)[nH]n1`
Reply: 0.2126

Task item: Next: Cn1c(=O)c2c(-c3ccccc3)n3c(c2n(C)c1=O)C(c1ccc(O)c(O)c1)Nc1ccccc1-3 (centres unmarked)
Reply: 0.1044

Task item: Next: `CN(C)S(=O)(=O)Nc1cnc(N2CCC(CCN3CCCCC3)CC2)c(C(=O)O)c1`
Reply: 0.277

====

Quick reference for Normalized Z rep1 among some compounds
# TARGET OR SYSTEM: SpCas9 (Streptococcus pyogenes serotype M1)
# ASSAY EXPLANATION: eGFP disruption assay, SpCas9, U2OS.eGFP.PEST cells
# Type: cell-based
# TEST CONDITIONS: replicate 1
Answer as a number with no unit attached.

Answered cases to consult:
>  <COMPOUND>
O=C(O)c1cc(NS(=O)(=O)c2cc(F)ccc2F)cnc1N1CCC(N2CCCCC2)CC1 [Compound F293-0616]

>  <TARGET OR SYSTEM>
SpCas9 (Streptococcus pyogenes serotype M1)

>  <Normalized Z rep1>
−0.36

$$$$
>  <COMPOUND>
Cc1[nH]nc2ccc(-c3cncc(OCC(N)Cc4ccccc4)c3)cc12 (stereo not shown) [Compound S2670]

>  <TARGET OR SYSTEM>
SpCas9 (Streptococcus pyogenes serotype M1)

>  <Normalized Z rep1>
−3.44

$$$$
>  <COMPOUND>
Cc1nn(-c2ccccc2)c(C)c1CCc1nn2c(-c3cnccn3)nnc2s1 [Compound D727-0838]

>  <TARGET OR SYSTEM>
SpCas9 (Streptococcus pyogenes serotype M1)

>  <Normalized Z rep1>
−0.12

$$$$

Task item: Which value of Normalized Z rep1 has been reported for CCN(Cc1ccccc1)c1ccc(NS(=O)(=O)c2ccc(OC)cc2)cc1C(=O)O [Compound F294-0003] in the records?
Reply: −0.48
